- TARGET_DESC: T1, recombinant gp120 of HIV-1 strain IIIb (HIV-1 strain IIIb, UniProt P04578 33-511)
- T1 construct: domain: gp120; also called IIIb-derived gp120; gp 120 (IIIB strain)
- ASSAY_TEXT: SPR BIAcore, gp120 on chip
Would you kindly list Fold Increase of Mutant Kd Compared to MT4 Kd for each of these binders?
One number for each entry, in fold.

Would you please look over these solved cases?
[
  {
    "BINDER": "Fab QA2 (Fab, V domains shown) VH: LEQSGAEVKKPGASVKVSCQASGYRFSNFTVHWVRQAPGQRFEWMGWINPYNGNKEFSAKFQDRVTFTADTSANTAYMELRSLRSADTAVYYCARVGEWGWDDSPQDNYYMDVWGKGTTVIVSS VL: ELTQSPGTLSLSPGERATFSCRSSHQLDGSRVAWYQHKPGQAPRLVIHGVSNRASGISDRFSGSGSGTDFTLTITRVEPEDFALYYCQLYGRGNYTFGQGTKLERKR",
    "VAL": 14.9
  },
  {
    "BINDER": "Fab QA9 (Fab, V domains shown) VH: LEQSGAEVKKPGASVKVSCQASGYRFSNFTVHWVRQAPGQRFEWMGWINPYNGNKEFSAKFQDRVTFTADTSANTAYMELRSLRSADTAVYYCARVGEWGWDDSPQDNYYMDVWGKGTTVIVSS VL: ELTQSPGTLSLSPGERATFSCRSSHQLDGSRVAWYQHKPGQAPRLVIHGVSNRASGISDRFSGSGSGTDFTLTITRVEPEDFALYYCQMYGGFTYTFGQGTKLERKR",
    "VAL": 10.3
  },
  {
    "BINDER": "Fab QA8 (Fab, V domains shown) VH: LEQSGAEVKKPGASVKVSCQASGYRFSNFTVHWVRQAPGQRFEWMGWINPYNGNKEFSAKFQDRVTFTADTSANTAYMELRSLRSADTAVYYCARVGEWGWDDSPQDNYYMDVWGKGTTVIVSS VL: ELTQSPGTLSLSPGERATFSCRSSHQLDGSRVAWYQHKPGQAPRLVIHGVSNRASGISDRFSGSGSGTDFTLTITRVEPEDFALYYCQQYGDSLYTFGQGTKLERKR",
    "VAL": 14.3
  },
  {
    "BINDER": "Fab QA12 (Fab, V domains shown) VH: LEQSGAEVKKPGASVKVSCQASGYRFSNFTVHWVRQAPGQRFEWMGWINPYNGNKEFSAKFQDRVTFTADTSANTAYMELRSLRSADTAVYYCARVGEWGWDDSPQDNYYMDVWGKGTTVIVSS VL: ELTQSPGTLSLSPGERATFSCRSSHQLDGSRVAWYQHKPGQAPRLVIHGVSNRASGISDRFSGSGSGTDFTLTITRVEPEDFALYYCQTYGRGIYTFGQGTKLERKR",
    "VAL": 48.6
  },
  {
    "BINDER": "Fab QA5 (Fab, V domains shown) VH: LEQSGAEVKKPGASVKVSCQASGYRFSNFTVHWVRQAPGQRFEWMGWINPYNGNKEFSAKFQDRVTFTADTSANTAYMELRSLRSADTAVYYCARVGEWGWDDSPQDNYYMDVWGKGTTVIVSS VL: ELTQSPGTLSLSPGERATFSCRSSHQLDGSRVAWYQHKPGQAPRLVIHGVSNRASGISDRFSGSGSGTDFTLTITRVEPEDFALYYCQTYGWSGYTFGQGTKLERKR",
    "VAL": 13.7
  }
]

What value of measured Fold Increase of Mutant Kd Compared to MT4 Kd is listed for Fab QA1 (Fab, V domains shown) VH: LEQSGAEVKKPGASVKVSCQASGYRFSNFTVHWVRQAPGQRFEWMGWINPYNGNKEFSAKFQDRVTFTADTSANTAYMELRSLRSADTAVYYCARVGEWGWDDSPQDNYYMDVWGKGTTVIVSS VL: ELTQSPGTLSLSPGERATFSCRSSHQLDGSRVAWYQHKPGQAPRLVIHGVSNRASGISDRFSGSGSGTDFTLTITRVEPEDFALYYCQVYGWSQYTFGQGTKLERKR ?
12.2
